Test system: OVCAR-3 ovarian
assay.procedure: NCI tumour cell line growth inhibition, 48 h
Hi there, I'd appreciate the recorded TGI for every entry that follows.
Numbers only, in µM.

Example results:
CN(C)/C=N/S(=O)(=O)c1nn2c(C=O)c(-c3ccccc3)nc2s1    24.1
CC(c1ccccc1)N1C(=O)CSC1=S (stereo not given)    1.23
COc1cc(C(=O)/C=C/c2c(-c3cccs3)nc3sccn23)cc(OC)c1OC    2.73

Here's the next entry for you.
Prompt: Recorded TGI for C#CCCOC(=O)CC1=C(C)/C(=C/c2ccc(S(C)=O)cc2)c2ccc(F)cc21 (stereo not given) , please?
Completion: 33.8

----------
Tested on: NCI/ADR-RES ovarian
assay.procedure: NCI tumour cell line growth inhibition, 48 h; in the data active means GI50 below about 0.43 µM; inactive means the rest
Respond using exactly one of the listed classes: active, inactive

CCOC(=O)c1cc(C(=O)c2cc(OC)cc(OC)c2)n2nc(C)ccc12    active
COc1cc(C(=O)/C=C/c2c(-c3cccs3)nc3sccn23)cc(OC)c1OC    inactive
O=[N+]([O-])c1cc([N+](=O)[O-])c(NN=C(c2ccc(O)cc2)c2ccc(O)cc2)cc1Cl    inactive
Cn1cc(-c2csc(-c3c[nH]c4ccc(F)cc34)n2)c2cccnc21    inactive
CCCCN1C=CCN(CCCC)C1    inactive

Prompt: Assay outcome for O=C(c1ccc(Oc2ccccc2)cc1Cl)c1c[nH]c2ncnc(N[C@@H]3CC[C@@H](CO)OC3)c12 : what was it?
Completion: inactive

Prompt: # lookup: test call for N#Cc1cc(-c2ccnc(Nc3ccc(NC(=O)CCl)cc3)n2)ccc1N1CCCC1
Completion: inactive

----------
Please go through the items and note down their TGI.
System: NCI-H460 lung
assay.procedure: NCI tumour cell line growth inhibition, 48 h

Guide cases for TGI, answers given:
COC(=O)N/N=C(/CC1(O)C(=O)Nc2ccc([N+](=O)[O-])cc21)c1ccccc1 (stereo unspecified)    > 100 µM
O=C(O)C1(Nc2ccc(Cl)cc2)CCCC1    > 100 µM
CC(C)(C)OC(=O)NCC(=O)NC1CC=CCC1NC(=O)CNC(=O)OC(C)(C)C (stereo unspecified)    > 100 µM
O=C1CC(=O)c2c(N3CCCC3)sc(N3CCCC3)c21    > 100 µM
O=C(O)Cc1cc(F)ccc1C(=O)O    > 100 µM

Prompt: Sample CN(c1ccc(Cl)c(Cl)c1)c1cnc2cc(N)cc(N)c2n1 — what was its TGI?
Completion: 52.1 µM

----------
Tested on: UACC-62 melanoma
assay.procedure: NCI tumour cell line growth inhibition, 48 h
readout.label: TGI (µM)
Answers are plain numbers, in µM.

CCCCc1ccc(NS(=O)(=O)c2cc3c4c(c2)CCN4C(=O)CC3)cc1    65.2

Dear colleague, could you please provide TGI for the compounds listed below?
1. N#CC1=C(N)OC2=C(CCCc3ccc([N+](=O)[O-])cc32)C1c1ccccc1 (stereo unspecified)
2. COc1cc(C(=O)/C=C/c2c(-c3cccs3)nc3sccn23)cc(OC)c1OC
3. COc1ccccc1N=NC(C(=O)c1ccccc1)C(=O)c1ccccc1
4. COc1cc2c(cc1OCCCCCN1C(=O)c3cccc4cccc(c34)C1=O)N=C[C@@H]1CCCN1C2=O
5. COc1cccc2c1C(=O)c1c(O)c3c(c(O)c1C2=O)C[C@@](O)(C(=O)CO)C[C@@H]3OC1CC(N(C)C)C(O)C(C)O1 (stereo partly specified)

Completion:
6.12
3.72
52.3
0.297
0.0261

----------
Tested on: SF-295 CNS
assay.procedure: NCI tumour cell line growth inhibition, 48 h
readout.label: TGI

Cc1cccc(/C=N/NC(=S)Nc2ccc(Cl)cc2)n1    14.4 µM

For each entry beneath this line, provide reported TGI.
1. C=CC(O)(CBr)CCC(Br)C(C)(C)Cl (stereo not drawn)
2. CC(C)(C)OC(=O)C1=C(O)C(C(=O)OC(C)(C)C)C23CCCCC12C(C(=O)OC(C)(C)C)C(O)=C3C(=O)OC(C)(C)C (stereo not drawn)
3. CC(CN(C)C)C(C#N)(c1ccccc1)c1ccccc1 (stereo not drawn)
4. CCOC(=O)NC(=O)c1cn(CCN2CCN(C(=O)CCCCCCCCCCNc3ncnc4c3ncn4C3OC(CO)C(O)C3O)CC2)c(=O)[nH]c1=O (stereo not drawn)
5. O=[N+]([O-])c1ccc(NC(=S)N=Nc2c(O)[nH]c3ccccc23)cc1
6. COc1ccccc1/C=C/C(=O)c1ccc(Nc2nc(Nc3ccc(F)cc3)nc(Nc3ccc(F)cc3)n2)cc1
7. C=C1C(O)C2C(=C(CC(C)C)C13CC3)C(=O)C(C)(C)C2O (stereo not drawn)

Completion:
> 10 µM
> 100 µM
> 100 µM
> 100 µM
21.5 µM
98.5 µM
> 100 µM

Please supply TGI for each of the following items, keeping them in order.
1. CC(C)(C)[Si](C)(C)OC1(CCc2ccccc2OS(=O)(=O)C(F)(F)F)CCCC=C1COCc1ccccc1 (stereo not drawn)
2. C1CSC2=C(S1)SC1=C(S2)SC(=C2SC3=C(SC4=C(SCCS4)S3)S2)S1
3. N#CC1=C(N)OC2=C(CCCc3ccc([N+](=O)[O-])cc32)C1c1ccccc1 (stereo not drawn)
4. c1ccc(COC2NCCN2Cc2ccccc2)cc1 (stereo not drawn)
5. CCOC(=O)C1CSCCSC1
6. C#CC1(O)C(COP(=O)(O)OC(COCCCCCCCCCCCCCCCCCC)COP(=O)(O)OCC2OC(n3cc(C)c(=O)[nH]c3=O)CC2N=[N+]=[N-])OC(n2ccc(N)nc2=O)C1O (stereo not drawn)

Completion:
["> 100 µM", "> 100 µM", "13.9 µM", "> 100 µM", "> 100 µM", "10.7 µM"]

Would you mind listing TGI for each of the following compounds?
1. CC(=O)N(C)C(C(=O)N1CC(C)CC1C(=O)N(C)C1C(=O)NC(CC(C)C)C(=O)N2CC(C)CC2C(=O)NC(CC(C)C)C(=O)N(C)C(C(C)C)C(=O)N2CCCC2C(=O)N(C)C(CC(C)C)C(=O)NCC(=O)OC1C)C(C)C (stereo not drawn)
2. COc1cccc2c1C(=O)c1c(O)c3c(c(O)c1C2=O)C[C@@](O)(C(=O)CO)C[C@@H]3OC1CC(N(C)C)C(O)C(C)O1 (stereo partly drawn)
3. Cc1ccc(O)c(-c2cc(-c3cccc(Br)c3)c(C#N)c(N)n2)c1
4. COc1cc(C(=O)Nc2cccc3ccccc23)c(Br)c(OC)c1OC

Completion:
1. > 100 µM
2. 0.173 µM
3. 54.2 µM
4. > 100 µM

----------
Kindly state TGI for each of the entries shown.
System: NCI-H522 lung
assay.procedure: NCI tumour cell line growth inhibition, 48 h
*1 amine or outer side, *2 acyl side, *3 side chain or, on linkers, in order; H or OH if unused. Where a SMILES comes first, the peptide text is derived from it. [ ]: non-standard residue; d: D form. The star is where a group is joined. ξ: configuration not given here. X53 = CC(C)C[C@H](N[*:1])C1=N[C@H](C(=O)[*:2])CS1; Ile(3ξ) = CCC(C)[C@H](N)C(=O)O; Allyl(1,1-Me2) = C=CC(C)(C)*

// worked examples, TGI included
COc1cc2c3c(c1Oc1nnnn1-c1ccccc1)-c1c(ccc4c1OCO4)C[C@H]3N(C)CC2    94.6 µM
COc1ccc(Cc2nccc3cc(OC)c(OC)cc23)cc1    > 100 µM
O=C(O)[C@@H](NS(=O)(=O)c1ccc(F)cc1)c1ccccc1    > 100 µM
CCCCCCCCCCCCC(=O)CCCCC(=O)O    42.1 µM
C=CC(C)(C)OC[C@@H]1NC(=O)CNC(=O)[C@@H]2CCCN2C(=O)[C@H](C(C)CC)NC(=O)[C@@H]2CSC(=N2)[C@H](CC(C)C)NC1=O (stereo partly specified) (cyclo(GS(Allyl(1,1-Me2))[X53][Ile(3ξ)]P))    > 100 µM
CC1(C)C(=NNC(=S)NN)C(C)(C)C1=NNC(=S)NN    > 100 µM
COC1=CC(=O)c2c(c(-c3csc(C)n3)cn2C)C1=O    91.4 µM
COC(=O)C1=C(OC(=O)/C(=C/c2ccccc2)c2ccc([N+](=O)[O-])cc2)C(C(=O)OC)[C@@]2(O)[C@@H](C(=O)OC)[C@H](C)C[C@@H]1[C@@H]2C(=O)OC (stereo partly specified)    > 100 µM
CCCCCCCCCCCC(=O)N(CCCCCCCCCCC(=O)O)CC(O)C(O)C(OC1OC(CO)C(O)C(O)C1O)C(O)CO (stereo unspecified)    > 100 µM
CCCCN1C=CCN(CCCC)C1    > 100 µM

Lab note: each compound below needs its TGI filled in.
1. O=C1c2ccccc2C(=O)N1[C@@H](Cc1ccccc1)C(=O)n1cccc1CO
2. N#CC1(C#N)C(c2ccc(C3C(C#N)(C#N)C3(C#N)C#N)cc2)C1(C#N)C#N
3. C#CCn1c(=O)[nH]c(=O)c2cccnc21
4. COc1ccc(P2(=S)OCCOP(=S)(c3ccc(OC)cc3)S2)cc1 (stereo unspecified)
5. O=C(O)C1(Nc2ccc(Cl)cc2)CCCC1
6. CSc1ccc(C2=NN(c3ccccc3)C(c3ccc(-c4cc(Cl)c(Cl)cc4Cl)o3)C2)cc1 (stereo unspecified)
7. CN(C)c1ccc(C2C(Cl)C(=O)N2NC(=O)c2c(Cl)c(Cl)c(Cl)c(Cl)c2-c2nc3ccccc3[nH]2)cc1 (stereo unspecified)

Completion:
["> 100 µM", "> 100 µM", "> 100 µM", "6.11 µM", "> 100 µM", "> 100 µM", "11.9 µM"]

Answer for every listed entry: what is its TGI? The entries follow.
1. Cc1ccccc1NC(=O)C(=O)C1CN(c2ccccc2)N=C1N (stereo unspecified)
2. COc1ccc2nccc(/C=C/c3ccc(N(C)C)cc3)c2c1

Completion:
> 100 µM
> 10 µM

Please report TGI for every entry that follows.
1. O=[N+]([O-])c1cc([N+](=O)[O-])c(NN=C(c2ccc(O)cc2)c2ccc(O)cc2)cc1Cl
2. O=C(/C=C/c1c(-c2ccccc2)[nH]c2ccccc12)S(=O)(=O)c1ccccc1
3. COc1cc(Nc2cc(O)c3c(=O)cc(-c4ccccc4)oc3c2)cc(OC)c1
4. COc1cc(/C=C/c2cc(/C=C/c3ccc(O)c(OC)c3)n(C(N)=O)n2)ccc1O
5. CN(C)/C=N/S(=O)(=O)c1nn2c(C=O)c(-c3ccccc3)nc2s1

Completion:
4.22 µM
> 100 µM
4.39 µM
0.964 µM
15.8 µM
